- System: Radical scavenging activity
- protocol details: Antioxidant activity assessed as DPPH radical scavenging activity at 10 ug after 20 min
- Assay type: functional
Activity by entry:
Answer format: numeric, % implied, no suffix.

Solved cases (4 shown):
• COc1ccc(C2CC(c3ccc(-n4nc(C)n(N)c4=O)cc3)=NN2C(C)=O)cc1 (centres undefined) = 0.6
• CC(=O)N1N=C(c2ccc(-n3nc(C)n(N)c3=O)cc2)CC1c1ccccc1Cl (centres undefined) = 20
• CC(=O)N1N=C(c2ccc(-n3nc(C)n(N)c3=O)cc2)CC1c1ccc(O)cc1 (centres undefined) = 3.08
• COc1ccc(C2CC(c3ccc(-n4nc(C)n(N)c4=O)cc3)=NN2C(C)=O)cc1OC (centres undefined) = 0.48

[in] // Input: CC(=O)N1N=C(c2ccc(-n3nc(C)n(N)c3=O)cc2)CC1c1ccc([N+](=O)[O-])cc1 (centres undefined) . Output its Activity only.
[out] 0.4

[in] // Input: CC(=O)N1N=C(c2ccc(-n3nc(C)n(N)c3=O)cc2)CC1c1ccccc1 (centres undefined) . Output its Activity only.
[out] 24.7

[in] // Input: CC(=O)N1N=C(c2ccc(-n3nc(C)n(N)c3=O)cc2)CC1c1ccc(Cl)cc1 (centres undefined) . Output its Activity only.
[out] 21.7

[in] // Input: CC(=O)N1N=C(c2ccc(-n3nc(C)n(N)c3=O)cc2)CC1c1cccc(Cl)c1 (centres undefined) . Output its Activity only.
[out] 15.2

[in] // Input: CC(=O)N1N=C(c2ccc(-n3nc(C)n(N)c3=O)cc2)CC1c1ccc(C)cc1 (centres undefined) . Output its Activity only.
[out] 23

====

- System: Radical scavenging activity
- protocol details: Antioxidant activity assessed as DPPH radical scavenging activity at 100 ug after 20 min
- Assay type: functional
Rule: Activity of 70% or more gives 1; anything lower gives 0.

Here are 6 compounds together with their reported answers.
- CC(=O)N1N=C(c2ccc(-n3nc(C)n(N)c3=O)cc2)CC1c1ccc([N+](=O)[O-])cc1 (centres undefined): 0
- CC(=O)N1N=C(c2ccc(-n3nc(C)n(N)c3=O)cc2)CC1c1cccc(Cl)c1 (centres undefined): 1
- CC(=O)N1N=C(c2ccc(-n3nc(C)n(N)c3=O)cc2)CC1c1ccc(Cl)cc1 (centres undefined): 1
- CC(=O)N1N=C(c2ccc(-n3nc(C)n(N)c3=O)cc2)CC1c1ccccc1Cl (centres undefined): 1
- CC(=O)N1N=C(c2ccc(-n3nc(C)n(N)c3=O)cc2)CC1c1ccc(O)cc1 (centres undefined): 0
- CC(=O)N1N=C(c2ccc(-n3nc(C)n(N)c3=O)cc2)CC1c1ccccc1 (centres undefined): 0

[in] Does Activity meet or surpass 70% for CC(=O)N1N=C(c2ccc(-n3nc(C)n(N)c3=O)cc2)CC1c1ccc(C)cc1 (centres undefined) ?
[out] 1

[in] Does Activity meet or surpass 70% for COc1ccc(C2CC(c3ccc(-n4nc(C)n(N)c4=O)cc3)=NN2C(C)=O)cc1OC (centres undefined) ?
[out] 0

[in] Does Activity meet or surpass 70% for COc1ccc(C2CC(c3ccc(-n4nc(C)n(N)c4=O)cc3)=NN2C(C)=O)cc1 (centres undefined) ?
[out] 0

====

- tested system: Pancreatic alpha-amylase (Homo sapiens)
- protocol details: Activity of alpha amylase (unknown origin) at 1 mg/ml after 10 min relative to control
Activity by entry:
Answer format: numeric, % implied, no suffix.

Solved cases (5 shown):
- CC(=O)N1N=C(c2ccc(-n3nc(C)n(N)c3=O)cc2)CC1c1ccc(O)cc1 (configuration not stated): 76.7
- COc1ccc(C2CC(c3ccc(-n4nc(C)n(N)c4=O)cc3)=NN2C(C)=O)cc1OC (configuration not stated): 64
- COc1ccc(C2CC(c3ccc(-n4nc(C)n(N)c4=O)cc3)=NN2C(C)=O)cc1 (configuration not stated): 96.5
- CC(=O)N1N=C(c2ccc(-n3nc(C)n(N)c3=O)cc2)CC1c1ccc(Cl)cc1 (configuration not stated): 126
- CC(=O)N1N=C(c2ccc(-n3nc(C)n(N)c3=O)cc2)CC1c1ccc(C)cc1 (configuration not stated): 96.5

[in] // Input: CC(=O)N1N=C(c2ccc(-n3nc(C)n(N)c3=O)cc2)CC1c1ccc([N+](=O)[O-])cc1 (configuration not stated) . Output its Activity only.
[out] 102

[in] // Input: CC(=O)N1N=C(c2ccc(-n3nc(C)n(N)c3=O)cc2)CC1c1cccc(Cl)c1 (configuration not stated) . Output its Activity only.
[out] 96.5

These data points were gathered from ChEMBL document CHEMBL3045844.
